- target or system: Ubiquitin-activating enzyme e1, putative (Leishmania donovani (strain BPK282A1)) (UniProt E9BSI1)
- Sequence (E9BSI1 as listed by the source): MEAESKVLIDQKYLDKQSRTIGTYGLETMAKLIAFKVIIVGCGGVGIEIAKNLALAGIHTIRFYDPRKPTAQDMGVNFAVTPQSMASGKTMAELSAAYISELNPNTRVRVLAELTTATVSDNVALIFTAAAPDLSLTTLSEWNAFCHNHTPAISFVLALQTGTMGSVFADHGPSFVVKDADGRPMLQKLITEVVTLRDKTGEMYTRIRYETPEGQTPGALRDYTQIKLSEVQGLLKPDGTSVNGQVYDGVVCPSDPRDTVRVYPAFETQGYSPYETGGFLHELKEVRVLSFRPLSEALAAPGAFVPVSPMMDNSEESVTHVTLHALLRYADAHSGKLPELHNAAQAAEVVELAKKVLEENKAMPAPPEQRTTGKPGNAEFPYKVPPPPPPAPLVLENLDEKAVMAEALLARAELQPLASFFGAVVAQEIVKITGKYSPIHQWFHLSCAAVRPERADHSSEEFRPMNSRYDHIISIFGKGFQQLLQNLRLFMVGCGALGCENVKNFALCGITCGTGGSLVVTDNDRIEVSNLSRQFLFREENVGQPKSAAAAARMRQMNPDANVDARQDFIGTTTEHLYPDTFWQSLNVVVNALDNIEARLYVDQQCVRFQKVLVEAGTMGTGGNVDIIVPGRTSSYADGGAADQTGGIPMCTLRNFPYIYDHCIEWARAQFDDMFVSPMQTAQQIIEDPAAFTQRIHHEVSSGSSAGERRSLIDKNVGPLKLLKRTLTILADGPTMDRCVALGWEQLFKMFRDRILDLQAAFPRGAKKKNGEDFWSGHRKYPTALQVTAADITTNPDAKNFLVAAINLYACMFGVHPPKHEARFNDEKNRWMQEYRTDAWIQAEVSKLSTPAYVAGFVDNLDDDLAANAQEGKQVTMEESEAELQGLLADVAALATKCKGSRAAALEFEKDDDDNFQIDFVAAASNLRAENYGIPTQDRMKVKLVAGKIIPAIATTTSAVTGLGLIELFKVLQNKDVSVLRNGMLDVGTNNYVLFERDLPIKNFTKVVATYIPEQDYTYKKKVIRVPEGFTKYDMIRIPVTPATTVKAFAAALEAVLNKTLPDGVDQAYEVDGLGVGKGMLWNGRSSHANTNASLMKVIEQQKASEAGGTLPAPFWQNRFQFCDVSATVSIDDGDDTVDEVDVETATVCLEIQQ
- experimental details: Leishmania donovani Ubiquitin Activating Enzyme (LdE1)
- Format: functional
- Set-up: scale not given: direction of the effect not stated beside the values
- conditions: 30 µM
Measured potencies and affinities stand elsewhere.
assay metric: Percent Effect (%)
One number for each entry, in %.

Answered examples (6):
>  <molecule>
Cc1nn(C)c(C)c1C1COCCN1c1ncnc2sccc12 (stereo not given)

>  <Percent Effect, %>
-2.67

$$$$
>  <molecule>
O=C(NCC1CCOCC1)[C@H]1C[C@@H]2CCN(Cc3ccncc3)C[C@@H]2O1

>  <Percent Effect, %>
-2.67

$$$$
>  <molecule>
c1ccc(COC2CCN(c3cncc(-n4cccn4)n3)CC2)cc1

>  <Percent Effect, %>
5.41

$$$$
>  <molecule>
CC(C)CCN1CCC2(CC1)CN(C(=O)c1cnccn1)CCO2

>  <Percent Effect, %>
2.67

$$$$
>  <molecule>
Cc1cnn(CC2CCCN2Cc2nc3ccccc3n2C)c1 (stereo not given)

>  <Percent Effect, %>
-10.1

$$$$
>  <molecule>
Cc1cccc(COC[C@@H]2CC[C@H]3[C@H](CCN3Cc3ccco3)O2)n1

>  <Percent Effect, %>
16.4

$$$$

# batch: return Percent Effect for each of the 7 molecules below
1. Cn1cc(CN2CCCC3(CCN(c4nncs4)C3)C2)cn1 (stereo not given)
2. CN(CC1(O)CCCN(CCC2CCCCC2)C1=O)C1CCOCC1 (stereo not given)
3. COc1ccsc1C(=O)N1CCCC(n2nc(C)nc2C)C1 (stereo not given)
4. Nc1cc2c(nn1)CCN(C(=O)c1cccc3c1OCCO3)C2
5. CCn1ccnc1CN1CCN(C(C)C(=O)NC2CCCCC2)CC1 (stereo not given)
6. NS(=O)(=O)Cc1ccc(CNC(=O)NCC2CCOC2)cc1 (stereo not given)
7. CCc1ncnc2c1CCN(C(=O)Cc1ccccn1)CC2

1. 2.7
2. 10.7
3. 0
4. 2.6
5. 5.26
6. 7.79
7. 4

# batch: return Percent Effect for each of the 2 molecules below
1. CC(Cn1ccnc1)NC(=O)C1(c2ccc3c(c2)OCCO3)CCCC1 (stereo not given)
2. CC(C)c1noc(CN(Cc2ccccc2F)C2CC2)n1

1. 20.2
2. 15.6

* * *

- Organism: Homo sapiens
- experimental details: To identify inhibition of the IFN signalling (Jak-Stat) pathway via expression of an eGFP reporter gene under the control of an IFN-stimulated response element (ISRE) containing MxA promoter.
- Assay type: functional
- Set-up: scale not given: direction of the effect not stated beside the values
- conditions: 30 µM
assay metric: Percent Effect (%)
One number for each entry, in %.

>  <compound>
Cc1nc(CN(C)C2CCN(CC3CCCCC3)C2)no1 (centres undefined)

>  <Percent Effect, %>
10.1

$$$$
>  <compound>
Cc1cc(C)n(CC2CCCN2C(=O)c2cccc3[nH]ncc23)n1 (centres undefined)

>  <Percent Effect, %>
7.84

$$$$
>  <compound>
O=C1OCCN1CCc1nc(-c2cc3c4c(c2)CC(=O)N4CCC3)cs1

>  <Percent Effect, %>
47.2

$$$$
>  <compound>
Fc1cccc(CN2CCC(c3n[nH]c4ncccc34)CC2)c1F

>  <Percent Effect, %>
18.6

$$$$
>  <compound>
CCC(=O)NCc1cc(Br)ccc1OC(F)F

>  <Percent Effect, %>
-8.01

$$$$
>  <compound>
Cc1nc(CNC(=O)NCC(O)c2ccc(F)c(F)c2)cs1 (centres undefined)

>  <Percent Effect, %>
23.3

$$$$

# batch: return Percent Effect for each of the 3 compounds below
1. O=C1CC(NCc2ccncc2)CN1Cc1cccc(F)c1 (centres undefined)
2. Cc1cnn(CC2CCCN2C(=O)CCc2ccsc2)c1 (centres undefined)
3. Cn1nc(CNC(=O)C2CCCC2)cc1C1CC1

1: -9.68; 2: 15.8; 3: 6.93
